The following compounds are listed with their measured viability, T/C values.
# Test system: LG0703-F948-PDC complex spheroid viability;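 further: spheroids exposed to agents for seven days before readout; 100% = DMSO vehicle control wells as normalization base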
# method: Anticancer human tumor LG0703-F948-PDC patient-derived lung adenocarcinoma cell line growth inhibition
# condition set: second compound 0.1 µM; first compound 0.03 µM; active compounds read low
# Text: Multicellular complex tumor spheroid response to LSD1 Inhibitor Iadademstat in combination with a variety of drugs and investigational agents in selected tumor cell lines The current study was undertaken to assess response to LSD1 inhibitors in combination with standard-of-care drugs and investigational agents in solid tumor complex spheroid models as well as in the K-562 leukemia. […] Compounds. […] If the clinical Cmax for an agent had not been determined, the highest concentration tested was 10 microM. […]

compound	viability, T/C
O=C(C=Cc1cccc(S(=O)(=O)Nc2ccccc2)c1)NO + NC1CCC(NC2CC2c2ccccc2)CC1	88%
Nc1ccn(C2OC(CO)C(O)C2(F)F)c(=O)n1 (stereo unspecified) + NC1CCC(NC2CC2c2ccccc2)CC1	44%
Nc1ncn(C2CC(O)C(CO)S2)c(=O)n1 (stereo unspecified) + NC1CC1c1ccc(-c2cccc(O)c2)cc1	108%
Nc1ccccc1NC(=O)c1ccc(CNC(=O)OCc2cccnc2)cc1 + NC1CC1c1ccc(-c2cccc(O)c2)cc1	85.7%
NS(=O)(=O)OCC1CC(n2ccc3c(NC4CCc5ccccc54)ncnc32)CC1O (stereo unspecified) + NC1CC1c1ccc(-c2cccc(O)c2)cc1	113%
Nc1ccccc1NC(=O)c1ccc(CNC(=O)OCc2cccnc2)cc1 + NC1CCC(NC2CC2c2ccccc2)CC1	99.9%
NS(=O)(=O)OCC1CC(n2ccc3c(NC4CCc5ccccc54)ncnc32)CC1O (stereo unspecified) + NC1CCC(NC2CC2c2ccccc2)CC1	111%
CCN(c1cc(-c2ccc(CN3CCOCC3)cc2)cc(C(=O)NCc2c(C)cc(C)[nH]c2=O)c1C)C1CCOCC1 + NC1CCC(NC2CC2c2ccccc2)CC1	106%
CCc1c2c(nc3ccc(O)cc13)-c1cc3c(c(=O)n1C2)COC(=O)[C@]3(O)CC + NC1CC1c1ccc(-c2cccc(O)c2)cc1	11.7%
CCc1c2c(nc3ccc(O)cc13)-c1cc3c(c(=O)n1C2)COC(=O)[C@]3(O)CC + NC1CCC(NC2CC2c2ccccc2)CC1	15%
Nc1ccn(C2OC(CO)C(O)C2(F)F)c(=O)n1 (stereo unspecified) + NC1CC1c1ccc(-c2cccc(O)c2)cc1	56.6%
COc1cc(C2c3cc4c(cc3C(OC3OC5COC(C)OC5C(O)C3O)C3COC(=O)C23)OCO4)cc(OC)c1O (stereo unspecified) + NC1CCC(NC2CC2c2ccccc2)CC1	104%
CCN(c1cc(-c2ccc(CN3CCOCC3)cc2)cc(C(=O)NCc2c(C)cc(C)[nH]c2=O)c1C)C1CCOCC1 + NC1CC1c1ccc(-c2cccc(O)c2)cc1	113%
COc1cc(C2c3cc4c(cc3C(OC3OC5COC(C)OC5C(O)C3O)C3COC(=O)C23)OCO4)cc(OC)c1O (stereo unspecified) + NC1CC1c1ccc(-c2cccc(O)c2)cc1	126%
Nc1ncn(C2CC(O)C(CO)S2)c(=O)n1 (stereo unspecified) + NC1CCC(NC2CC2c2ccccc2)CC1	120%
O=C(C=Cc1cccc(S(=O)(=O)Nc2ccccc2)c1)NO + NC1CC1c1ccc(-c2cccc(O)c2)cc1	74.8%
